System: COLO 205 colon
Test: NCI tumour cell line growth inhibition, 48 h
Measured parameter: TGI (µM)
Reply numerically in µM, unit not repeated.

// known answers, use as guide
CCCCCCCCCCCCCCCCNc1ccc2c(c1)OCCOCCOCCOCCO2: 3.18
COc1cccc(N2C(=O)[C@H]3[C@H]4CC(C(C)(C)C)CC[C@H]4c4c([nH]c5ccccc45)[C@H]3C2=O)c1 (stereo not given in full): 32.2
C[CH2][Sn]([Cl])([CH2]C)[CH2]C: 3.8

Okay, now this compound:
Return TGI (reported value) for this compound: C=CCCC(O)c1ccc(CCCCCCCCCCC)o1 (stereo not given)
35.3

Numbers sourced from PubChem BioAssay (NCI).
